Target chain: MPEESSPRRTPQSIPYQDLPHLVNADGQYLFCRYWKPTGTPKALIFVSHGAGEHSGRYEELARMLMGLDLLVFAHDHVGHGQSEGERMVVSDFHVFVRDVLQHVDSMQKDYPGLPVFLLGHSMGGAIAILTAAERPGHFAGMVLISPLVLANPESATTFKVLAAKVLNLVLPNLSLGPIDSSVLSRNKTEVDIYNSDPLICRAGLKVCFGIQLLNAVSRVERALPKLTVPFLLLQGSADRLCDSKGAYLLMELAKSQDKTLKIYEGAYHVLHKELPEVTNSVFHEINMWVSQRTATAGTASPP
readout: Kd (nM)
State just the number; it will be interpreted in nM.

Fill blank: measured Kd of the compound Cc1ccnc(F)c1-c1cccc(N2C[C@H](N3CCN(C(=O)c4nccs4)CC3)CC2=O)c1 [T-401] is ____. 4.7
